testedSystem: hAHR (Homo sapiens, UniProt P35869)
Sequence (P35869 11-848): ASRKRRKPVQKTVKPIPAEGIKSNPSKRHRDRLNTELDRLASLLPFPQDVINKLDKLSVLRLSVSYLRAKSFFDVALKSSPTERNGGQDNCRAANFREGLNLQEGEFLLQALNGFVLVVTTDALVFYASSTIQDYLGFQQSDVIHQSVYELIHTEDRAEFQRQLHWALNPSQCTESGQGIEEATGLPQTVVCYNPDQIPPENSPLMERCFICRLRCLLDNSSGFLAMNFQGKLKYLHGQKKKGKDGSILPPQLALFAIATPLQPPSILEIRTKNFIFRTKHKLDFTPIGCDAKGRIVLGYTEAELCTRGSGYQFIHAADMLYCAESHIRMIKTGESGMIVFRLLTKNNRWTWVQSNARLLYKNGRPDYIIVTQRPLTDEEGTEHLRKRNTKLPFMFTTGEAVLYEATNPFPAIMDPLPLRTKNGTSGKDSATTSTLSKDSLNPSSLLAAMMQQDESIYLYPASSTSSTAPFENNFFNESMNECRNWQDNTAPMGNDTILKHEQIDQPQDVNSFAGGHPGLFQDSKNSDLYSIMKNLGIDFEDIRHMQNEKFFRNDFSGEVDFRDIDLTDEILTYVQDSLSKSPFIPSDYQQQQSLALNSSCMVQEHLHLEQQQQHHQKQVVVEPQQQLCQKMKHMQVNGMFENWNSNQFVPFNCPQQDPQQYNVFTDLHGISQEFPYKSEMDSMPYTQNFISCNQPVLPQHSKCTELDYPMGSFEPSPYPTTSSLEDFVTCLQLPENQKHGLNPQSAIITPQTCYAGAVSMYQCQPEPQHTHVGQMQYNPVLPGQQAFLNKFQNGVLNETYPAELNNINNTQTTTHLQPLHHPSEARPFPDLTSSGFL
methodDescription: hAHR nuclear translocation assay
particulars: Jump-In T-REx HEK293 cells expressing AhR-EGFP; 45 min incubation; ratio of EGFP intensity in nuclear over cytosol; 20-point curve
pEC50: −log10 of the molar value.
outcomeMeasure: pEC50

CC1CCc2c1cc(C(=O)Nc1ccc(F)cn1)c(=O)n2C (single isomer, unassigned) [Example 56] : 8.61

[a] CC1CCc2c1cc(C(=O)NC1CCCC1)c(=O)n2C (single isomer, unassigned) [Example 61]
[b] C[C@@H]1CCc2c1cc(C(=O)Nc1ccns1)c(=O)n2C
[c] C[C@@H]1CCc2c1cc(C(=O)Nc1ncc(F)cn1)c(=O)n2C
rank_up(items): orders items by reported pEC50 in ascending numerical order. # format: label list in the order the request specifies
a, c, b
(a: 7.38, c: 8.10, b: 8.87)

* * *

testedSystem: hAHR (Homo sapiens)
methodDescription: hAHR nuclear translocation assay
particulars: Jump-In T-REx HEK293 cells expressing AhR-EGFP; 45 min incubation; ratio of EGFP intensity in nuclear over cytosol; 20-point curve
pEC50: −log10 of the molar value.
outcomeMeasure: pEC50

CC1CCc2c1c(O)c(C(=O)Nc1ncc(F)cn1)c(=O)n2C (single isomer, unassigned) [Example 96] : 9.22
COc1cnc(NC(=O)c2c(O)c3c(n(C)c2=O)CCC3C)nc1 (stereo not drawn) [Example 27] : 8.19
CC1Cc2cc(C(=O)Nc3ncccn3)c(=O)n(C)c2C1 (stereo not drawn) : 7.69
CC1CCc2c1c(O)c(C(=O)Nc1ccc(F)cn1)c(=O)n2C (single isomer, unassigned) [Example 100] : 8.66
CC1CCc2c1cc(C(=O)Nc1ncc(C(F)(F)F)cn1)c(=O)n2C (stereo not drawn) [Example 8] : 8.85
CC1CCc2c1cc(C(=O)Nc1ccc(C(F)(F)F)cn1)c(=O)n2C (stereo not drawn) [Example 4] : 8.74

[A] Cn1c2c(cc(C(=O)Nc3ccccc3)c1=O)CCCCC2
[B] C[C@@H]1CCc2c1cc(C(=O)Nc1cnsc1)c(=O)n2C
When A and B are compared, which has the higher number for pEC50? Lab note: record the label of whichever item you select.
A
